Molecular target: T1, ActRIIB-Fc homodimer (human, UniProt Q13705 19-137)
T1 construct: extracellular domain; also called unmodified ActRIIB-Fc homodimer; ActRIIB-Fc:ActRIIB-Fc homodimer
T1 sequence (looked up): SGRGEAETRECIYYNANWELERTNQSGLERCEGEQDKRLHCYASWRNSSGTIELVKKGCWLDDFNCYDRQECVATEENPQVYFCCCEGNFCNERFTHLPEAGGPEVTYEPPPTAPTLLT
Assay: SPR (Biacore), anti-Fc capture, ligand in flow
# Lookup of reported log10 of kon keyed by entry
// do not treat as linear: log10 of kon, unit M⁻¹ s⁻¹

Solved cases (5 shown):
activin A (ligand, UniProt P08476 311-426, looked up) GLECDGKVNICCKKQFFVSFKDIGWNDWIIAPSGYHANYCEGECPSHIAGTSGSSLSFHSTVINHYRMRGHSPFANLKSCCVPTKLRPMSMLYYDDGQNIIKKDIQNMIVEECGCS    7.11
BMP10 (ligand, UniProt O95393 317-424, looked up) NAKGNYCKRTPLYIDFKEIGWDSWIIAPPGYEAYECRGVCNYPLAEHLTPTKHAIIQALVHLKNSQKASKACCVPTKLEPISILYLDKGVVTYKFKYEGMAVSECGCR    6.77
GDF3 (ligand, UniProt Q9NR23 251-364, looked up, also called VGR2) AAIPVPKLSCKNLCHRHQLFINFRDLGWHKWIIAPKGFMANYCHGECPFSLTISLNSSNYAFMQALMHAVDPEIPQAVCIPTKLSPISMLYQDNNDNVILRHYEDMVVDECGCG    6.15
activin B (ligand, UniProt P09529 293-407, looked up) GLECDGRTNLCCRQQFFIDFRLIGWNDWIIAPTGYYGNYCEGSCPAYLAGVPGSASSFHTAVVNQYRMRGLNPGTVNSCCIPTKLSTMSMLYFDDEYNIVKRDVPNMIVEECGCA    7.18
BMP9 (ligand, UniProt Q9UK05 320-429, looked up, also called GDF2) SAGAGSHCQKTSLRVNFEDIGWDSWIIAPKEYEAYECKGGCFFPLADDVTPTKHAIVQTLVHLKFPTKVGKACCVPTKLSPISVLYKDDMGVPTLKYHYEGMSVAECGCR    8.08

Note: attention shifts to another entry.
Look up log10 of kon: GDF11 (ligand, UniProt O95390 299-407, looked up, also called BMP11) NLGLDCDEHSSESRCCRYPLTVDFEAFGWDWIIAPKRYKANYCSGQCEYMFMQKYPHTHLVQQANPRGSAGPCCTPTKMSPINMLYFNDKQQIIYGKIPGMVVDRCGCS 7.98
